The following molecules are listed with their measured Kb values.
STUDY_SYSTEM: NPY Y2 receptor (Homo sapiens)
Construct: endogenous in cells; host or cells: KAN-Ts cells (membrane preparation)
Sequence (P49146 1-381): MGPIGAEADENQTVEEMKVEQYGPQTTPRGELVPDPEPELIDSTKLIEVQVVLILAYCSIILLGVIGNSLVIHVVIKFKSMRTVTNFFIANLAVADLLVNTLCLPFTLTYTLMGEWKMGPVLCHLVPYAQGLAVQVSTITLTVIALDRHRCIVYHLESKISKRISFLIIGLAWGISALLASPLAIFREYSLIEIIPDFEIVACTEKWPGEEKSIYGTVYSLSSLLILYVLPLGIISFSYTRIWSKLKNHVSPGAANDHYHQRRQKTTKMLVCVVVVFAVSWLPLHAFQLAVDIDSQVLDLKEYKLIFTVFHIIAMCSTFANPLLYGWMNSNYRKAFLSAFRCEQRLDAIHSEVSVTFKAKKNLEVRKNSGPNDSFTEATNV
ASSAY_INFO: Neuropeptide Y2 pKB assay (FLIPR, KAN-Ts cells stably expressing chimeric G proteins)
Assay type: cell-based
MEASUREMENT_CONDITIONS: apparent pKB, FLIPR calcium, KAN-Ts cells with chimeric G proteins; modified Cheng-Prusoff correction
Numeric answer only, unit nM assumed.

Past entries and their recorded results:
CCN(CC)C(=O)C(c1ccccc1)N1CCN(c2ccc(-c3nc(C(C)C)no3)cc2C#N)CC1 (stereo not shown) [Compound 218]    12.6
CCN(CC)C(=O)C(c1ccccc1)N1CCN(c2ccc(-c3nc(C)no3)cc2Br)CC1 (stereo not shown) [Compound 203]    200
CCN(CC)C(=O)C(c1ccccc1)N1CCN(c2ccc(-c3noc(C(C)C)n3)cc2F)CC1 (stereo not shown) [Compound 69]    50.1
CCN(CC)C(=O)C(c1ccccc1)N1CCN(c2ccc(-c3nc(C)no3)cc2F)CC1 (stereo not shown) [Compound 119]    89.1
CCN(CC)C(=O)C(c1ccccc1)N1CCN(c2ccc(-c3nc(C)no3)cc2C#N)CC1 (stereo not shown) [Compound 217]    23.4
CCN(CC)C(=O)C(c1ccccc1)N1CCN(c2ccc(-c3noc(C)n3)cc2F)CC1 (stereo not shown) [Compound 67]    200

Shifting focus to the molecule that follows.
Could you tell me which Kb is on file for CCN(CC)C(=O)C(c1cccc(F)c1)N1CCN(c2ccc(-c3nc(C)no3)cc2C#N)CC1 (stereo not shown) [Compound 263] ?
20
